Can you tell me growth for the items I'm about to list?
test system: HOP-92 NSCLC; test: NCI-60 one-dose screen, 48 h (100 = growth as untreated, 0 = no growth, -100 = all killed); conditions: 10 µM unless noted
Compounds without any hit were thinned out: in the full panel of roughly 83,000, 20% have a hit. Active and inactive are the calls of the source. The calls were made as follows: active = growth percent below 10; inactive = the rest.

Ask: So what does the record say about growth for Cc1c(C)c2c(c(C)c1OCC(=O)O)CC[C@@](C)(CCC[C@@H](C)CCC[C@@H](C)CCCC(C)C)O2 ?
Result: -56.6% [50 µM] (active)

Ask: Likewise for COc1ccc(-c2nc3c(c(=O)n2C(C)=O)C(c2ccc(Cl)cc2)c2sc4c(Cl)cccc4c2O3)cc1 (centres undefined) ?
Result: -15.7% (active)

Ask: Another compound: COc1ccc(-c2cc(-c3ccc(Nc4nc(Nc5ccc(Cl)cc5)nc(Nc5ccc(Cl)cc5)n4)cc3)nc(N)c2C#N)cc1
Result: -53.8% (active)

Ask: N#Cc1c(-c2ccccn2)[nH]c(=S)[nH]c1=O ?
Result: 93.6% (inactive)

Ask: What do you get for CC(C)CCC[C@@H](C)[C@H]1CC[C@H]2[C@@H](Nc3ccc(O)cc3)CCC[C@]12C ?
Result: 136% (inactive)

Ask: Now consider N=c1sc(Cc2ccc(Cl)cc2)cn1CC(=O)c1ccc(F)cc1 and answer again.
Result: 109% (inactive)

Ask: Also need C(=N\Nc1ncc(-c2cc3cc4c(cc3o2)OCO4)s1)/c1ccco1 , thanks.
Result: 63.2% (inactive)

Ask: C#Cc1cccc(NC(=O)c2ccc(NC(=O)CCl)cc2)c1 , same question.
Result: -57.6% [8.25 µM] (active)

Ask: Next: COc1cc(C(=O)/C=C/c2c(-c3ccc(F)cc3)nc3sc(C)cn23)cc(OC)c1OC
Result: 23.4% (inactive)
